Measured reporter increase accompanies every entry in the list below.
# Experimental Protocol: Bmi1 luciferase reporter increase in mESCs, primary screen, esBAF inhibitor project, mouse ES cells, Bmi1 luciferase knock-in, single point (AID 602393);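 further: 0% = median of the plate's neutral control wells and 100% = double that signal; a rise in the Bmi1 reporter signal indicates esBAF inhibition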
# Setup Conditions: 24 h, at 12.5 µM, active compounds read high, 100% = twice the neutral-well signal
Hit rate of the full screen: of about 350,000 compounds, about 7,000 (2%) were called active. Many of the other results were omitted from the sample, so actives are more common in it than they were.
Endpoint Name: reporter increase (%)

>>> result("O=C(COC(=O)c1ccc(F)cc1)Nc1ccc2c(c1)OCO2")
1.17
>>> result("O=C(Nc1ccccc1)N1CCN(Cc2ccccc2)CC1")
40.2
>>> result("O=C(CN1CCSCC1)N/N=C/c1ccc(F)cc1")
5
>>> result("CC(C)NC(=O)N[C@@H]1CC[C@H](CC(=O)NCCN2CCCC2)O[C@@H]1CO")
-2.08
>>> result("C/C(=N\\Nc1nc2ccccc2[nH]1)c1cccs1")
67.6
>>> result("COc1ccc2cc(C(=O)O)n(CC(=O)c3ccccc3)c2c1")
-1.55
>>> result("COc1ccc(S(=O)(=O)Nc2ccc3c(c2)C(=O)N([C@@H](C)CO)C[C@@H](C)[C@H](CN(C)C(=O)Nc2ccc(C(F)(F)F)cc2)OCCCC[C@@H](C)O3)cc1")
7.49
>>> result("COc1ccc(NC(=O)N(C)C[C@@H]2OCCCC[C@H](C)Oc3ccc(NS(=O)(=O)c4c(C)noc4C)cc3C(=O)N([C@@H](C)CO)C[C@@H]2C)cc1")
10.5
>>> result("O=C(Nc1ccccc1)N1CCN(C2c3ccccc3-c3ccccc32)CC1")
4.83
>>> result("O=C(Cc1ccc(F)cc1)N/N=C/c1ccc2c(c1)OCO2")
52.6
>>> result("CCCn1c(=N)n(CC(=O)c2ccc(Cl)c(Cl)c2)c2ccccc21")
3.54
>>> result("C[C@@H]1CN([C@H](C)CO)S(=O)(=O)c2ccc(C3=CCCC3)cc2O[C@H]1CN(C)C(=O)CC1CC1")
-4.31
>>> result("Cc1cc(-c2cccs2)nc(-n2cccc2)n1")
17.4
>>> result("Cc1cccc(CSc2ccc(-c3cccs3)nn2)c1")
50.5
>>> result("C[C@@H]1CN([C@@H](C)CO)C(=O)c2cc(NC(=O)c3ccncc3)ccc2O[C@@H]1CN(C)S(C)(=O)=O")
0.579
>>> result("Nc1c(C(=O)Nc2ccc3c(c2)OCCO3)nnn1Cc1ccccc1")
62.1
>>> result("Cc1ccc(S(=O)(=O)Nc2ccc3c(c2)C(=O)N([C@@H](C)CO)C[C@@H](C)[C@H](CN(C)Cc2ccncc2)O3)cc1")
2.63
>>> result("CO[C@@H]1CN(C)C(=O)c2cc(NC(=O)C3CC3)ccc2OC[C@@H](C)N(C(=O)c2ccccc2F)C[C@@H]1C")
-20.7
>>> result("C[C@H]1CCCCO[C@@H](CN(C)Cc2ccc(C(=O)O)cc2)[C@@H](C)CN([C@@H](C)CO)C(=O)c2cc(NS(C)(=O)=O)ccc2O1")
-4.29

* * *

# reporter increase listing for each entry below
# Experimental Protocol: Bmi1 luciferase reporter increase in mESCs, primary screen, esBAF inhibitor project, mouse ES cells, Bmi1 luciferase knock-in, single point (AID 602393);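 further: 0% = median of the plate's neutral control wells and 100% = double that signal; a rise in the Bmi1 reporter signal indicates esBAF inhibition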
# Setup Conditions: 24 h, at 12.5 µM, active compounds read high, 100% = twice the neutral-well signal
About 7,000 (2%) of roughly 350,000 compounds were called active. Only a selection was taken, and actives are over-represented in it overall.
Endpoint Name: reporter increase (%)

>>> result("CCOc1cc2ccccc2cc1C(=O)Nc1ccccn1")
18.4
>>> result("COc1cc(Cl)ccc1OCc1cc(C(=O)N(C)CCc2c(C)n[nH]c2C)no1")
14.1
>>> result("COc1cc2ccccc2cc1C(=O)Nc1ccncc1")
60
>>> result("COCC(=O)Nc1ccc2c(c1)C(=O)N(C)C[C@@H](OC)[C@H](C)CN(C(=O)c1ccccn1)[C@@H](C)CO2")
4.23
>>> result("CCC(=O)Nc1ccc2c(c1)C(=O)N(C)C[C@@H](OC)[C@@H](C)CN(Cc1ccccc1OC)[C@H](C)CO2")
-3.34
>>> result("CCOC(=O)CC1(NC(=O)c2cc(COc3cncc(Cl)c3)on2)CCCCC1")
2.06
>>> result("Cc1ccccc1C(=O)Nc1ccccc1NC(=O)c1ccccc1C")
-2.73
>>> result("CCn1ccnc1CN(C)C(=O)c1cc(COc2ccc(Cl)cc2OC)on1")
1.62
>>> result("COc1cc2ccccc2cc1C(=O)Nc1ccc(S(=O)(=O)Nc2cc(C)on2)cc1")
5.76
>>> result("COc1cc2ccccc2cc1C(=O)Nc1ccccc1C")
71.4
